measured.target: angiotensin-converting enzyme (ACE) (Oryctolagus cuniculus)
Sequence (P12822 34-1310): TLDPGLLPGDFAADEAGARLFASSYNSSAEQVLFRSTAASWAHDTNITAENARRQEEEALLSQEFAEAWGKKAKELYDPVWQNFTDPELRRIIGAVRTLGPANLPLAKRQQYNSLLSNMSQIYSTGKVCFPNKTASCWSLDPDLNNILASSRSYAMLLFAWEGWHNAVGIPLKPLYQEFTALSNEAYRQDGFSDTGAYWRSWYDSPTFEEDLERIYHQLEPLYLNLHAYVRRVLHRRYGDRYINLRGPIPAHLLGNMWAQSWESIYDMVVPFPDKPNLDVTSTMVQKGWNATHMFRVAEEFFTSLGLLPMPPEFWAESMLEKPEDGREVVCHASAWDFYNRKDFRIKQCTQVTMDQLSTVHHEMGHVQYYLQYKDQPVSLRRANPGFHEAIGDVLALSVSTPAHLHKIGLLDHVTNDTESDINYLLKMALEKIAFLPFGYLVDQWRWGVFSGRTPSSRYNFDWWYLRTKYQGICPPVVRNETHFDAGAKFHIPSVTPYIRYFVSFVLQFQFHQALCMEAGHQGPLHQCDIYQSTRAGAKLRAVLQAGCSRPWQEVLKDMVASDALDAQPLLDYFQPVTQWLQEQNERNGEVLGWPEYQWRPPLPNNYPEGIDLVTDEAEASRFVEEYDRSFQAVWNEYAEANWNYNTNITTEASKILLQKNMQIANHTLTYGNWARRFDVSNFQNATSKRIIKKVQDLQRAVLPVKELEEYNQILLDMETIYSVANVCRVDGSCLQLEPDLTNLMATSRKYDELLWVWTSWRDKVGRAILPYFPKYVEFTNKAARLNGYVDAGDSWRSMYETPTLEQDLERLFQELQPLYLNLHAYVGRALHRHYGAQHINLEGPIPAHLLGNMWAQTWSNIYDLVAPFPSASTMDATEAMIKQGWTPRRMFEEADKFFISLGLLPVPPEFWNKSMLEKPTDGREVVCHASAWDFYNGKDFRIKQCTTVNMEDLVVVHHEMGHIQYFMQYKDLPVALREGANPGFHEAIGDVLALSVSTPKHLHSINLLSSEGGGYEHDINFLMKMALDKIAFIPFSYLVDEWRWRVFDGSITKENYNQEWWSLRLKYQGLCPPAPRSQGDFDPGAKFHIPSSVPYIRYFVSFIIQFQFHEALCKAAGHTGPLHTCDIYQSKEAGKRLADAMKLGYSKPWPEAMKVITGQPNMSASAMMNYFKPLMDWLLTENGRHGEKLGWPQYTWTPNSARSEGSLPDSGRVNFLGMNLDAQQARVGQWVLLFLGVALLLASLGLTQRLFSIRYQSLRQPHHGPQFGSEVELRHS
measured.endpoint: pIC50
Answers are plain numbers, as −log10 of the molar value.

Query pIC50 on angiotensin-converting enzyme (ACE) (Oryctolagus cuniculus) for CCCCCCCSC[C@H](NC(C)C(=O)N1CCC[C@H]1C(=O)NC(Cc1ccccc1)C(=O)O)C(=O)O (stereo partly shown) [Compound 7]
7.62
